target: ATM enzyme (human) (Homo sapiens, UniProt Q13315); test: ATM kinase assay (HTRF, phosphorylation of GST-cMyc-p53); type: biochemical; settings: 10 concentrations, 10 to 0.001 μM; read-out: IC50 (nM), in vitro inhibitory effect on ATM kinase
Sequence (Q13315 whole entry): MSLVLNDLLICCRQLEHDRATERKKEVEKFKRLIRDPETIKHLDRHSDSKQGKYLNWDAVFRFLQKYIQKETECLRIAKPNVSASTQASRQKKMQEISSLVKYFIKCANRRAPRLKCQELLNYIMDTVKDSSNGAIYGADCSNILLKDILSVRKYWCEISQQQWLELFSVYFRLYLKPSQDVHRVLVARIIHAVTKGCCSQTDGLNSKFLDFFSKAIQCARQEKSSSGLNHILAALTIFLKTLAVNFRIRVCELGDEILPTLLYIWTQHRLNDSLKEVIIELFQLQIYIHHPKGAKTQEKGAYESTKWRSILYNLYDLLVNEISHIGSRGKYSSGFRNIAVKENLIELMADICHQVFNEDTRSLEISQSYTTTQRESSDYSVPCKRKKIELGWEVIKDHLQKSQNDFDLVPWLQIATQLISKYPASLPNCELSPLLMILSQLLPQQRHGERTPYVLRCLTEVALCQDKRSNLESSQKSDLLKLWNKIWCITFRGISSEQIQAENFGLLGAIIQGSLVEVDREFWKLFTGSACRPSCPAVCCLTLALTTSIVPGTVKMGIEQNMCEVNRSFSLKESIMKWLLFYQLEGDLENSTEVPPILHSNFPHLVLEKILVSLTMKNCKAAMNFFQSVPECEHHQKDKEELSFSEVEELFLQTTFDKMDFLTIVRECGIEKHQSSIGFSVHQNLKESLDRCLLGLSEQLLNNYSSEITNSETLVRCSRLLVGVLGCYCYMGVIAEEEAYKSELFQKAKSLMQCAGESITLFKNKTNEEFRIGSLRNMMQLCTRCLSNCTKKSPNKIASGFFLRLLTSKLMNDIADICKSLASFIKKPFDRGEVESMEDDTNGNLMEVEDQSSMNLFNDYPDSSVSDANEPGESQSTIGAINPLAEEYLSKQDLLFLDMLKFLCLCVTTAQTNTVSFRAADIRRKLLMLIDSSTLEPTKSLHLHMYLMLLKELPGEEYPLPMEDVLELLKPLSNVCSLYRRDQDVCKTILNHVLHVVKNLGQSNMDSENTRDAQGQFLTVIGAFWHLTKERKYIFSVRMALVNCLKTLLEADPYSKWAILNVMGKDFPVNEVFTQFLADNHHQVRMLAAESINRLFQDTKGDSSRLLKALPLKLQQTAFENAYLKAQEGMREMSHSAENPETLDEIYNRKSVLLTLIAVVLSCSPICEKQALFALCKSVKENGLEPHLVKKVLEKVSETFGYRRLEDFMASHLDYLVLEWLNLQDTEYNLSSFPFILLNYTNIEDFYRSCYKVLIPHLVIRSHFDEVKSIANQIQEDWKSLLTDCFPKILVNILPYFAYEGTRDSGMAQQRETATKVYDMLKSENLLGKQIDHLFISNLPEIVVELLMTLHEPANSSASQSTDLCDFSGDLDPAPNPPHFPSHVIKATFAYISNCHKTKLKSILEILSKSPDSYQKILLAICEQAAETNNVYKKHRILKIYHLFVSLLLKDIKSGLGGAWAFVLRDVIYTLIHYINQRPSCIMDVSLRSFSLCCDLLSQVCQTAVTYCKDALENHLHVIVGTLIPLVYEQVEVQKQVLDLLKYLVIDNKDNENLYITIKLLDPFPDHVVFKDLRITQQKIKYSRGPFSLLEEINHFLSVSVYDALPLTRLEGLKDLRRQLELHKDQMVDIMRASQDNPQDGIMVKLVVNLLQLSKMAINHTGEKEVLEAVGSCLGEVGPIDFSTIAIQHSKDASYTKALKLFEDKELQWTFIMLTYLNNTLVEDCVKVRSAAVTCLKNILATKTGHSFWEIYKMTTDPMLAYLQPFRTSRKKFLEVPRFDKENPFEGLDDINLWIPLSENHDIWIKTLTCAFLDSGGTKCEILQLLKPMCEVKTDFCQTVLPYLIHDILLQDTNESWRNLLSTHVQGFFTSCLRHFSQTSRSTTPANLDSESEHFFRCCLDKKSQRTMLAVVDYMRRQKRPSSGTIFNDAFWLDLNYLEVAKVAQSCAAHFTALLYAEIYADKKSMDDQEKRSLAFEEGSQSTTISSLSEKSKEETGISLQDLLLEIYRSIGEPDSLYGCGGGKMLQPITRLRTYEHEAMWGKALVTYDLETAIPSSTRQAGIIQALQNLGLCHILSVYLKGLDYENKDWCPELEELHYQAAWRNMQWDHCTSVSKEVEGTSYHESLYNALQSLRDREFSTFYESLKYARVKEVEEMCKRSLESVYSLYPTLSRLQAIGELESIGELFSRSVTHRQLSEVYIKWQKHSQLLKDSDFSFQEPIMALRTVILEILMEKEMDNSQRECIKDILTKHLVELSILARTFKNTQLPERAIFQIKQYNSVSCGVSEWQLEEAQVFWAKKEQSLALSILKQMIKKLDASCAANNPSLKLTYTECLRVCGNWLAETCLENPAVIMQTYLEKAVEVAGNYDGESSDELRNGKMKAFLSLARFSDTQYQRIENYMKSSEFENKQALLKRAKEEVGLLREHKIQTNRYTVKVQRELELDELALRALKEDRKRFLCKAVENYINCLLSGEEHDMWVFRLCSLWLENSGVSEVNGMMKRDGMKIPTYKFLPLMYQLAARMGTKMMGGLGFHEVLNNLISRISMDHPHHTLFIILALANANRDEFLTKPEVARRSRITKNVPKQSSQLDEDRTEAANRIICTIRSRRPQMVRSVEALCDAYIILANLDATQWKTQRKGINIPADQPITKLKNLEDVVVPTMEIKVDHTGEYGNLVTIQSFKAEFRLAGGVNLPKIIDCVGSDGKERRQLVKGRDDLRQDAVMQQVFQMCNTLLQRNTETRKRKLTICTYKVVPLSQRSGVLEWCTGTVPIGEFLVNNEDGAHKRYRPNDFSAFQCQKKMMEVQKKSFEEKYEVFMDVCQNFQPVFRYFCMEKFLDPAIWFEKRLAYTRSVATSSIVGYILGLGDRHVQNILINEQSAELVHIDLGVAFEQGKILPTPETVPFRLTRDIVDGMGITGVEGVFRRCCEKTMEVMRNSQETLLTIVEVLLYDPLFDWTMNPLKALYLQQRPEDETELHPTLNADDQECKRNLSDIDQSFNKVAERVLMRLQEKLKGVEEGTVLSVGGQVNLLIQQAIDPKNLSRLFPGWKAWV
property.name: IC50 (nM)
Express the result in nM but write the number alone.

**Q:** Complete the entry with IC50 for `CN(C)CCCOc1ccc(-c2ccc3nc4cccc(C5=CCOCC5)c4n3c2)cn1`
**A:** 239

---

target: ATM enzyme (human) (Homo sapiens); experiment: ATM kinase assay (HTRF, phosphorylation of GST-cMyc-p53); assay type: biochemical; conditions: 0.5 h; detected concentration 1 μm
Entries annotated with measured inhibition at 1 µM
Express the result in % but write the number alone.

C[C@@H]1CN(c2cccc3nc4ccc(-c5ccc(N6CCC(N(C)C)CC6)c(F)c5)cn4c23)C[C@H](C)N1C [Example 46] :: 100

**Q:** Complete the entry with inhibition at 1 µM for CN(C)CCCOc1ccc(-c2ccc3nc4cccc(NC5CCN(C)CC5)c4n3c2)cn1 [Example 15]
**A:** 39

**Q:** For the compound CN(C)CCCOc1ccc(-c2ccc3nc4cccc(N5CCOCC5)c4n3c2)cc1 [Example 4] , give its reported inhibition at 1 µM.
**A:** 74

**Q:** Return the recorded inhibition at 1 µM value; entry: CN1CCN(c2cccc3nc4ccc(-c5ccc(N6CCC(N(C)C)CC6)c(C(F)(F)F)c5)cn4c23)CC1 [Example 43]
**A:** 99

The measurements presented in this section are drawn from patent US11547703B2.
